Measured AC50 accompanies every entry in the list below.
- Measurement target: Voltage-dependent L-type calcium channel subunit alpha-1C (Homo sapiens); further: assay procedure not described here
- Sequence (Q13936 whole entry): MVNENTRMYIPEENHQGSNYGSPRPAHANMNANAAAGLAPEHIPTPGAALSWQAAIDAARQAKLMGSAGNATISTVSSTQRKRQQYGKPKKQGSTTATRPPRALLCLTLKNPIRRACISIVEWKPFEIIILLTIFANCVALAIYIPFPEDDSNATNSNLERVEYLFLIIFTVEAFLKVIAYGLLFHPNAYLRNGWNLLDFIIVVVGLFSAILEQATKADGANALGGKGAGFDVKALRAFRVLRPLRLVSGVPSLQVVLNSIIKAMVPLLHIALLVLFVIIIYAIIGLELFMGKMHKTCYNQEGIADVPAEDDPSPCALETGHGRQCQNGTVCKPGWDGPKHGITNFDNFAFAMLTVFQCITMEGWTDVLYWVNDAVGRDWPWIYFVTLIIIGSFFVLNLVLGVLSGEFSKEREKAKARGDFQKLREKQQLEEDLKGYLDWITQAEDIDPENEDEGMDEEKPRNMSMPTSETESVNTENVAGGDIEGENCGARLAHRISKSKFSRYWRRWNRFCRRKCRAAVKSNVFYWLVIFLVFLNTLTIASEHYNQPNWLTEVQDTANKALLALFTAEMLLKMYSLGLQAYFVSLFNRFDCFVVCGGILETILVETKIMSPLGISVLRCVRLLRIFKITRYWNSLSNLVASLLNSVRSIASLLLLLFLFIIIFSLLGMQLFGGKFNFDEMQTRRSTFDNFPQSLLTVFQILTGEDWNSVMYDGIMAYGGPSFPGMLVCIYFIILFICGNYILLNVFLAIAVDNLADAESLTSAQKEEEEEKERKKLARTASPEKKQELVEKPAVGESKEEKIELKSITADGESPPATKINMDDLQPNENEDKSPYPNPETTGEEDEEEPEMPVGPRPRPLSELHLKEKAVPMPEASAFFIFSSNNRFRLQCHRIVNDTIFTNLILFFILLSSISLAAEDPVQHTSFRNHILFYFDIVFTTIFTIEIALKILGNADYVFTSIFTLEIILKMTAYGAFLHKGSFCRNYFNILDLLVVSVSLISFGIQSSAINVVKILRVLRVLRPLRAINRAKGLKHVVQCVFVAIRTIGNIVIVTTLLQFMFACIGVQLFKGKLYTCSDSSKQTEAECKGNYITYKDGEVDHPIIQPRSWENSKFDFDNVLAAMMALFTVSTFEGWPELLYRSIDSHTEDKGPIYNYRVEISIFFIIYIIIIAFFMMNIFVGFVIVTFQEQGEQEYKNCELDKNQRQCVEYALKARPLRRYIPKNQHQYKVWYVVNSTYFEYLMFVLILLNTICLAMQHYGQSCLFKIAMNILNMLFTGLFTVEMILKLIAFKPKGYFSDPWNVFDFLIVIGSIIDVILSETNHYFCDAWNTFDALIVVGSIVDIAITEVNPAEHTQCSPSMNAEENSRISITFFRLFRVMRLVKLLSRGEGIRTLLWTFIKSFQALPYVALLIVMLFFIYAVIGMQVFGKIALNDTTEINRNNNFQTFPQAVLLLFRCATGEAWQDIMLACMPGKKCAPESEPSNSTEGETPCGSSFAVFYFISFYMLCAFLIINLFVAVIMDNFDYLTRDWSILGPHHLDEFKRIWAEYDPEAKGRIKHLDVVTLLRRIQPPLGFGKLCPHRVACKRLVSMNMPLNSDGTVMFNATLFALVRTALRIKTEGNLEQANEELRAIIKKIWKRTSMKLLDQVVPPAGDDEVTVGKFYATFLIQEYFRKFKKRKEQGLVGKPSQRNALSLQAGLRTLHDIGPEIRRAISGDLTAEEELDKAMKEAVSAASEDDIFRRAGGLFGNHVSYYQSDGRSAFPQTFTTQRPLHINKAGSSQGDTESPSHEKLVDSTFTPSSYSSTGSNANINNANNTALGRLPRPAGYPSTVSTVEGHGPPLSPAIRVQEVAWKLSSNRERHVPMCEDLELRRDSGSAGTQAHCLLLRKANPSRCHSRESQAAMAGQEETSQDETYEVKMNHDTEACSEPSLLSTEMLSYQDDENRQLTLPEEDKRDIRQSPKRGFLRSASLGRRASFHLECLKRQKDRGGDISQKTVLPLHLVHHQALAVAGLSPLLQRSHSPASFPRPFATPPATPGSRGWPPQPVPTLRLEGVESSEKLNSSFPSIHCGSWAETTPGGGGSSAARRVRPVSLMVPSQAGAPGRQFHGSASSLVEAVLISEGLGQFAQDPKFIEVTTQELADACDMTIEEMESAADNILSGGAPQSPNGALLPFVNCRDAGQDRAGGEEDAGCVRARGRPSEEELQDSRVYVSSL
- Format: functional, cell-based
Experimental readout: AC50

| Molecule | Measurement target | Meas value |
| --- | --- | --- |
| COC(=O)C1=C(C)NC(C)=C(C(=O)OC2CCCN(Cc3ccccc3)C2)C1c1cccc([N+](=O)[O-])c1 (stereo unspecified) | Voltage-dependent L-type calcium channel subunit alpha-1C (Homo sapiens) | 1.9 µM |
| CCCCCCOc1nsnc1C1=CCCN(C)C1 | Voltage-dependent L-type calcium channel subunit alpha-1C (Homo sapiens) | 10 µM |
| CC[C@H]1[C@@H](O)[C@@H]2[C@H](CC[C@]3(C)[C@@H]([C@H](C)CCC(=O)O)CC[C@@H]23)[C@@]2(C)CC[C@@H](O)C[C@@H]12 | Voltage-dependent L-type calcium channel subunit alpha-1C (Homo sapiens) | > 30 µM |
| CO[C@H]1C[C@@H]2CC[C@@H](C)[C@@](O)(O2)C(=O)C(=O)N2CCCC[C@H]2C(=O)O[C@H]([C@H](C)C[C@@H]2CC[C@@H](O)[C@H](OC)C2)CC(=O)[C@H](C)/C=C(\C)[C@@H](O)[C@@H](OC)C(=O)[C@H](C)C[C@H](C)/C=C/C=C/C=C/1C | Voltage-dependent L-type calcium channel subunit alpha-1C (Homo sapiens) | > 50 µM |
| CC(CC(c1ccccc1)c1ccccc1)NC(C)(C)C (stereo unspecified) | Voltage-dependent L-type calcium channel subunit alpha-1C (Homo sapiens) | > 50 µM |
| COc1ccccc1OCC(O)CN1CCN(CC(=O)Nc2c(C)cccc2C)CC1 (stereo unspecified) | Voltage-dependent L-type calcium channel subunit alpha-1C (Homo sapiens) | > 50 µM |

----------
// each record: one item and its AC50 for UniProt:P08172

| Compound | AC50 |
| --- | --- |
| C=CCc1ccccc1OCC(O)CNC(C)C (centres undefined) | > 0.3 µM |
| OCCN1C[C@H](O)[C@@H](O)[C@H](O)[C@H]1CO | > 30 µM |
| CC(C)(C)NC[C@H](O)COc1ccccc1C1CCCC1 | > 30 µM |
| C[S+](CC[C@H](N)C(=O)[O-])C[C@H]1O[C@@H](n2cnc3c(N)ncnc32)[C@H](O)[C@@H]1O (some centres undefined) | > 30 µM |
| O=C(OCC(O)CO)c1ccccc1Nc1ccnc2cc(Cl)ccc12 (centres undefined) | 4.3 µM |
| CCOC(=O)/C=C1\SC(N2CCCCC2)C(=O)N1C (centres undefined) | > 30 µM |
| O=C(Nc1ccc(Cl)cc1)Nc1ccc(Cl)c(Cl)c1 | > 30 µM |
| O=C(CCNNC(=O)c1ccncc1)NCc1ccccc1 [NIALAMIDE] | > 30 µM |
| OC(CCN1CCCCC1)(c1ccccc1)c1ccccc1 | 0.129 µM |
| Cc1cccc(Nc2ccccc2C(=O)O)c1C | > 30 µM |
| C[N+](C)(C)CCO | > 30 µM |
| CC(C)(C)CC(C)(C)c1ccc(O)c(Cc2ccc(Cl)cc2Cl)c1 | > 10 µM |
| CC(C)C[C@H]1C(=O)N2CCC[C@H]2[C@]2(O)O[C@](NC(=O)[C@@H]3C[C@@H]4c5cccc6[nH]cc(c56)C[C@H]4N(C)C3)(C(C)C)C(=O)N12 [DIHYDROERGOCRYPTINE] | > 30 µM |
| CC(=O)N[C@@H]1[C@@H](O)[C@H](O)[C@@H](CO)O[C@H]1O | > 30 µM |
| CC(=O)Nc1ccc(O)cc1 | > 30 µM |
| Cc1oc(=O)oc1CN1CCN(c2cc3c(cc2F)c(=O)c(C(=O)O)c2n3C(C)S2)CC1 (centres undefined) | > 30 µM |
| OB1OCc2cc(F)ccc21 | > 30 µM |
| C[N+]1(CCCCC[N+]2(C)CCCC2)CCCC1 | > 30 µM |
| CC1=C(/C=C/C(C)=C/C=C/C(C)=C/C=C/C=C(C)/C=C/C=C(C)/C=C/C2=C(C)CCCC2(C)C)C(C)(C)CCC1 | > 30 µM |

----------
The compounds below have reported AC50 for Muscarinic acetylcholine receptor M2 (Homo sapiens, UniProt P08172).

| Compound | AC50 |
| --- | --- |
| CS(=O)(=O)c1ccc(C2=C(c3ccccc3)C(=O)OC2)cc1 [ROFECOXIB] | > 30 µM |
| N[C@H]1C(O)O[C@H](CO)[C@@H](O)[C@@H]1O (some centres not stated) [GLUCOSAMINE] | > 30 µM |
| CC(=O)[C@@]1(O)CC[C@H]2[C@@H]3C=C(C)C4=CC(=O)CC[C@]4(C)[C@H]3CC[C@@]21C | > 30 µM |
| Cc1cc(C)c(NC(=O)CN(CC(=O)O)CC(=O)O)c(C)c1Br [MEBROFENIN] | > 30 µM |
| NNc1nnc(NN)c2ccccc12 [DIHYDRALAZINE] | > 30 µM |
| Cc1cn([C@H]2C=C[C@@H](CO)O2)c(=O)[nH]c1=O [STAVUDINE] | > 30 µM |
| C=CCCCCCCCCC(=O)O [UNDECYLENIC ACID] | > 30 µM |
| C[C@]12CC[C@@H]3c4ccc(O)cc4CC[C@H]3[C@@H]1C[C@@H](O)[C@@H]2O [ESTRIOL] | > 30 µM |
| CC(C)(C)N1CCC(c2ccccc2)(c2ccccc2)CC1 [BUDIPINE] | 0.301 µM |
| CCCNC(C)C(=O)Nc1c(C)csc1C(=O)OC (configuration not stated) [ARTICAINE] | > 30 µM |
| CO[C@H]1C[C@@H]2CC[C@@H](C)[C@@](O)(O2)C(=O)C(=O)N2CCCC[C@H]2C(=O)O[C@H]([C@H](C)C[C@@H]2CC[C@@H](O)[C@H](OC)C2)CC(=O)[C@H](C)/C=C(\C)[C@@H](O)[C@@H](OC)C(=O)[C@H](C)C[C@H](C)/C=C/C=C/C=C/1C [SIROLIMUS] | > 30 µM |
| CN(C)S(=O)(=O)c1ccc2c(c1)N(CCCN1CCC(CCO)CC1)c1ccccc1S2 [PIPOTIAZINE] | 1.72 µM |
| COCc1c(C(C)C)nc(C(C)C)c(/C=C/[C@@H](O)C[C@@H](O)CC(=O)O)c1-c1ccc(F)cc1 [CERIVASTATIN] | > 30 µM |
| CCN(CC)CCOC(=O)C(c1ccccc1)C1CCCCC1 (configuration not stated) [DROFENINE] | 0.0342 µM |
| CC(C)(S)[C@@H](N)C(=O)O [PENICILLAMINE] | > 30 µM |
| CC[N+]1(C)[C@@H]2CC(OC(=O)[C@H](CO)c3ccccc3)C[C@H]1[C@@H]1O[C@@H]12 (some centres not stated) [OXITROPIUM] | 0.003 µM |
| CCCCCNC(=N)N/N=C/c1c[nH]c2ccc(OC)cc12 [TEGASEROD] | 6.59 µM |
| CCOC(=O)[C@H](CCc1ccccc1)N[C@@H](C)C(=O)N1CC2(C[C@H]1C(=O)O)SCCS2 | > 30 µM |
| CCCCOC(=O)C(=O)[C@H]1[C@H](C)C[C@H]2[C@@H]3C[C@H](F)C4=CC(=O)C=C[C@]4(C)[C@H]3[C@@H](O)C[C@@]21C [FLUOCORTIN BUTYL] | > 30 µM |
| Cc1cn([C@H]2C[C@H](N=[N+]=[N-])[C@@H](CO)O2)c(=O)[nH]c1=O [ZIDOVUDINE] | > 30 µM |
| COC(c1ccccc1)(c1ccccc1)[C@H](Oc1nc(C)cc(C)n1)C(=O)O [AMBRISENTAN] | > 30 µM |
| O=C(O)c1ccccc1C(=O)Nc1ccc(S(=O)(=O)Nc2nccs2)cc1 [PHTHALYLSULFATHIAZOLE] | > 30 µM |

----------
Reported AC50 by item:
- Measurement target: Sodium-dependent noradrenaline transporter (Homo sapiens); further: assay procedure not described here
- Sequence (P23975 whole entry): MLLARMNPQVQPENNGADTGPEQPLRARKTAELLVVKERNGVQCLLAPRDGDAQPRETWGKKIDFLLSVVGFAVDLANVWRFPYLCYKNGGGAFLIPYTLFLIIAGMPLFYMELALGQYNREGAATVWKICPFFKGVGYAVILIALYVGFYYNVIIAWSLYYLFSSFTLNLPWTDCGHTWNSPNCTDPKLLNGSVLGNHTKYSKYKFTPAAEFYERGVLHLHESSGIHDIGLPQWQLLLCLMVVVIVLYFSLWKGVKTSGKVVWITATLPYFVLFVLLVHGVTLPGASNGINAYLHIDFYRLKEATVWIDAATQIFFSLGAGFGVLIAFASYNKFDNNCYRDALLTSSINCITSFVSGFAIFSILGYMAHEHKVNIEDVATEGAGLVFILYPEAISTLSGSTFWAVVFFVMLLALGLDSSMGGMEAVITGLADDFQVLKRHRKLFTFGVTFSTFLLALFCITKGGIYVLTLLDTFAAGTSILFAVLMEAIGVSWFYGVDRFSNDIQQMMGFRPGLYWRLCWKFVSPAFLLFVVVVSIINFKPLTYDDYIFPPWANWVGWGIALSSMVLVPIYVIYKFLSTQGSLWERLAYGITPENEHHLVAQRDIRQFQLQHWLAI

| Compound | AC50 |
| --- | --- |
| COc1ccccc1OCC(O)CN1CCN(CC(=O)Nc2c(C)cccc2C)CC1 (stereo unspecified) [RANOLAZINE] | > 30 µM |
| C=CCN1CCCC1CNC(=O)c1cc(S(N)(=O)=O)cc(OC)c1OC (stereo unspecified) [VERALIPRIDE] | > 30 µM |
| C[C@]12CCC(=O)C=C1CC[C@@H]1[C@@H]2[C@@H](O)C[C@@]2(C)[C@H]1CC[C@]2(O)C(=O)CO [HYDROCORTISONE] | > 10 µM |
| CC1(C)CCC(CN2CCN(c3ccc(C(=O)NS(=O)(=O)c4ccc(NCC5CCOCC5)c([N+](=O)[O-])c4)c(Oc4cnc5[nH]ccc5c4)c3)CC2)=C(c2ccc(Cl)cc2)C1 [VENETOCLAX] | 11 µM |
| Cc1c(C(=O)NN2CCCCC2)nn(-c2ccc(Cl)cc2Cl)c1-c1ccc(Cl)cc1 [RIMONABANT] | 22 µM |
| COc1ccc(CCN(C)CCCC(C#N)(c2cc(OC)c(OC)c(OC)c2)C(C)C)cc1OC (stereo unspecified) [GALLOPAMIL] | > 30 µM |
| O=C(NCCN1CCOCC1)c1ccc(Cl)cc1 [MOCLOBEMIDE] | > 10 µM |
| CC(C)Cn1cnc2c(N)nc3ccccc3c21 [IMIQUIMOD] | > 30 µM |
| NCC[C@H](O)C(=O)N[C@@H]1C[C@H](N)[C@@H](O[C@H]2O[C@H](CN)[C@@H](O)[C@H](O)[C@H]2O)[C@H](O)[C@H]1O[C@H]1O[C@H](CO)[C@@H](O)[C@H](N)[C@H]1O [AMIKACIN] | > 10 µM |
| CCOC(=O)[N-]c1cn(N2CCOCC2)n[o+]1 [MOLSIDOMINE] | > 30 µM |
| Cn1c(=O)c2c(ncn2CC2OCCO2)n(C)c1=O [DOXOFYLLINE] | > 30 µM |
| O=C(O)CCCCCCNC1c2ccccc2CCc2ccccc21 [AMINEPTINE] | > 30 µM |
| CN1C(=O)OC(C)(C)C1=O [TRIMETHADIONE] | > 10 µM |
| O=C(O)C[C@H](O)C[C@H](O)/C=C/c1c(C2CC2)nc2ccccc2c1-c1ccc(F)cc1 [PITAVASTATIN] | > 30 µM |
| CC(=O)Nc1ccc(O)cc1 [ACETAMINOPHEN] | > 30 µM |
| CC(=O)OCC(=O)[C@@]12N=C(C)O[C@@H]1C[C@H]1[C@@H]3CCC4=CC(=O)C=C[C@]4(C)[C@H]3[C@@H](O)C[C@@]12C [DEFLAZACORT] | > 30 µM |
